Values compiled from patent US20110195900A1.

molecular target: human parathyroid hormone receptor 2 (human, UniProt P49190); experiment: cell-based or functional assay
Non-standard residues stand in square brackets, D forms with d. No end group written: not given here. 1Nal = N[C@@H](Cc1cccc2ccccc12)C(=O)O; β3hI = CC[C@H](C)[C@H](N)CC(=O)O; Nle = CCCC[C@H](N)C(=O)O; β3hA = C[C@H](N)CC(=O)O; Aib = CC(C)(N)C(=O)O; βAla = NCCC(=O)O
Assign 1.0 to entries whose hPTHR-2 EC50 (nM), luciferase reporter gene assay meets or exceeds 30 nM; assign 0.0 to the rest.

Examples with answers:
{"columns": ["binder", "category"],
 "data": [
  ["SVSEIQL[Nle]HNLGKHLNS[β3hI]ERVE[1Nal]LRKLLQDVHNF-NH2 [[Nle^8, β-hIle^18, 1-Nal^23, Leu^27] hPTH (1-34)-NH2]", 1.0],
  ["[Aib]VSEIQL[Nle]HNLGKHLN[βAla][Nle]ERVE[1Nal]LRKLLQDVHNF-NH2 [[Aib^1, Nle^8,18, β-Ala^17, 1-Nal^23, Leu^27] hPTH (1-34)-NH2]", 1.0],
  ["SVSEIQL[Nle]HNLGKHLKS[β3hI]ERVE[1Nal]LRKLLQRVHEF-NH2 [[Nle^8, Lys^16, β-hIle^18, 1-Nal^23, Leu^27, Arg^30, Glu^33] hPTH (1-34)-NH2]", 0.0],
  ["SVSEIQL[Nle]HNLGKHLNS[β3hI]ERVE[1Nal]LRKLLQSVHNF-NH2 [[Nle^8, β-hIle^18, 1-Nal^23, Leu^27, Ser^30] hPTH (1-34)-NH2]", 0.0],
  ["SVSEIQL[Nle]HNLGKHLNS[β3hA]ERVE[1Nal]LRKLLQDVHNF-NH2 [[Nle^8, β-hAla^18, 1-Nal^23, Leu^27] hPTH (1-34)-NH2]", 1.0]
]}

In plain terms: is recorded hPTHR-2 EC50 (nM), luciferase reporter gene assay at least 30 nM for SVSEIQL[Nle]HNLGKHLKS[β3hI]ERVE[1Nal]LRKLLQRVHNF-NH2 [[Nle^8, Lys^16, β-hIle^18, 1-Nal^23, Leu^27, Arg^30] hPTH (1-34)-NH2] ? 0.0
